test_system: MCH-1R (UniProt Q99705)
test_description: MCH-1R competition binding assay
recorded_metric: Ki (nM)
Field: numeric (nM). Do not append units.

Query :: For the compound CS(=O)(=O)N1CCN(Cc2ccc3c(c2)CC[C@H](n2cnc4cc(-c5ccc(F)c(F)c5)sc4c2=O)C3)CC1 , give its reported Ki.
Result :: 39.3

Query :: Identify Ki associated with the compound CS(=O)(=O)N1CCN(Cc2ccc3c(c2)CC[C@H](n2cnc4cc(-c5ccsc5)sc4c2=O)C3)CC1
Result :: 60

Query :: Tell me measured Ki for CNCc1ccc2c(c1)CC[C@H](n1cnc3cc(-c4ccc(Cl)cc4)sc3c1=O)C2 please.
Result :: 0.4

Query :: Entry CS(=O)(=O)N1CCN(Cc2ccc3c(c2)CC[C@H](n2cnc4cc(-c5ccc(Cl)cc5)sc4c2=O)C3)CC1 needs its Ki filled in; supply it.
Result :: 65

Query :: Given the compound COc1cncc(-c2cc3ncn([C@H]4CCc5cc(CN6CCN(S(C)(=O)=O)CC6)ccc5C4)c(=O)c3s2)c1 , write its reported Ki.
Result :: 17.9

Query :: Hello, please tell me recorded Ki for this one: CC(=O)N1CCN(Cc2ccc3c(c2)CC[C@H](n2cnc4cc(-c5cc(F)cc(F)c5)sc4c2=O)C3)CC1
Result :: 369

Query :: Fill in reported Ki for this entry: CS(=O)(=O)N1CCN(Cc2ccc3c(c2)CC[C@H](n2cnc4cc(-c5cncc(Cl)c5)sc4c2=O)C3)CC1
Result :: 21

Query :: Give me measured Ki, please, for this compound: CC(=O)N1CC2CC1CN2Cc1ccc2c(c1)CC[C@H](n1cnc3cc(-c4ccc(Cl)cc4)sc3c1=O)C2 (some centres unmarked)
Result :: 1.8

Query :: Identify the reported Ki for the following entry. CC(=O)N1CCN(Cc2ccc3c(c2)CC[C@H](n2cnc4cc(-c5ccc(F)c(F)c5)sc4c2=O)C3)CC1
Result :: 36.6

Query :: Provide one value: measured Ki of CC(=O)N1CCN(Cc2ccc3c(c2)CC[C@H](n2cnc4cc(-c5ccc(Cl)cc5)sc4c2=O)C3)CC1
Result :: 35

Query :: Give recorded Ki. O=c1c2sc(-c3ccc(Cl)cc3)cc2ncn1[C@H]1CCc2cc(CNC(CO)CO)ccc2C1
Result :: 10.7

Query :: Look up and state reported Ki for CC(=O)N1CCN(Cc2ccc3c(c2)CC[C@H](n2cnc4cc(-c5cccnc5F)sc4c2=O)C3)CC1
Result :: 813

Query :: Specify measured Ki for O=c1c2sc(-c3ccc(Cl)cc3)cc2ncn1[C@H]1CCc2cc(CN3CCCC3)ccc2C1 .
Result :: 13.7

Query :: # return recorded Ki for input CC(=O)N1CCN(Cc2ccc3c(c2)CC[C@H](n2cnc4cc(-c5ccc(F)cc5)sc4c2=O)C3)CC1
Result :: 9.4

Query :: Look up Ki of CC(=O)N1CCN(Cc2ccc3c(c2)CC[C@H](n2cnc4cc(-c5cncc(F)c5)sc4c2=O)C3)CC1 and report it.
Result :: 97

Query :: Let me know recorded Ki for CS(=O)(=O)N1CCN(Cc2ccc3c(c2)CC[C@H](n2cnc4cc(-c5ccc(Cl)cc5Cl)sc4c2=O)C3)CC1 , thanks.
Result :: 107

Query :: // Input: CC(=O)N1CCN(Cc2ccc3c(c2)CC[C@H](n2cnc4cc(-c5ccc(Cl)cc5Cl)sc4c2=O)C3)CC1 . Output its Ki only.
Result :: 24.7
